# Cell Binding to Human PanT Signal/Background (of CD4 negative population) annotations
target: T1, human CD8 on human pan T cells (human, UniProt P01732 22-235; P10966 22-210); assay: flow cytometry, 20 nM mAb on human pan T cells
T1 construct: Native CD8 on the CD4-negative population of human pan T cells
T1 sequence (P01732 22-235, chain 1 of 2): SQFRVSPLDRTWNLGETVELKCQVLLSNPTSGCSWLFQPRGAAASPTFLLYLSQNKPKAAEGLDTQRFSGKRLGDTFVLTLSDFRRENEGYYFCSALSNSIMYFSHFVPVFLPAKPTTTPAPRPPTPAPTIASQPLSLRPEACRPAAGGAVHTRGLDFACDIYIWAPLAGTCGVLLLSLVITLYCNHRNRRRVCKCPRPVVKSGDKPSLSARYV
T1 sequence (P10966 22-210, chain 2 of 2): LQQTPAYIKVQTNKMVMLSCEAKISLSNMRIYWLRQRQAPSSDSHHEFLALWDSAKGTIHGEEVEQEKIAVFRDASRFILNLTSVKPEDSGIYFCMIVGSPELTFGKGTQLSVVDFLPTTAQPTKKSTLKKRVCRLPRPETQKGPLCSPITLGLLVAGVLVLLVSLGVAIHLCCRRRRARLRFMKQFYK
Write no unit; give the number alone.

Solved entries (count: 2):
[[record]]
binder = "CD8B304 (antibody, human IgG1, kappa, V domains shown, full-length human IgG1, kappa) VH: QVTLKESGPGILKPSQTLSLTCSFSGFSLSTSGMNVGWIRQPSGKGLEWLAHIWWDDDKYYNPSLKSQLTISKDTSRNQVFLKITSVDTADTATYYCARRGNYGNYEFAYWGQGTTVTVSS VL: DIQMTQTTSSLSASLGDRVTISCRASQDIRNYLNWYQQKPDGTVKLLIYHTSRLHSGVPSRFSGSGSGTDYSLTISNLDQEDIATYFCQQGNTLPWTFGAGTKLELKR"
quantitative_result = 923

[[record]]
binder = "CD8B310 (antibody, human IgG1, kappa, V domains shown, full-length human IgG1, kappa) VH: QVQLKESGPGLVAPSQSLSITCTVSGFSLTNYAVHWVRQSPGKGLEWLGVIWTDGSTDYNAGFISRLSISKDNSKSQVFFKMNSLQADDTAIYYCARNNGYFPAFFAYWGQGTTVTVSS VL: DVLMTQTPLSLPVSLGDQASISCRSSQTIVHSNGNTYLEWYLQKPGQSPKLLMYKVSNRFSGVPDRFGGSGSGTDFTLKISRVEAEDLGVYYCFQGSHAPFTFGSGTKLEIKR"
quantitative_result = 29


Next binder, please.
// Cell Binding to Human PanT Signal/Background (of CD4 negative population) value for CD8B246 (antibody, human IgG1, kappa, V domains shown, full-length human IgG1, kappa) VH: QVQLKESGPGILKPSQTLSLTCSFSGFSLSTSGMNVGWIRQPSGKGLEWLAHIWWDDDKYYNPSLKSQLTISKDTSRNQVFLKITSVDTADTATYYCARRGNYGNYEFAYWGQGTTLTVSS VL: DIQMTQTTSSLSASLGDRVTISCRASQDIRNYLNWYQQKPDGTVKLLIYHTSRLHSGVPSRFSGSGSGTDYSLTISNLEQEDIATYFCQQGNTLPWTFGAGTKLELKR : 1110
